Molecular target: human recombinant BACE1 (Homo sapiens (Human), UniProt P56817)
Sequence (P56817 46-501): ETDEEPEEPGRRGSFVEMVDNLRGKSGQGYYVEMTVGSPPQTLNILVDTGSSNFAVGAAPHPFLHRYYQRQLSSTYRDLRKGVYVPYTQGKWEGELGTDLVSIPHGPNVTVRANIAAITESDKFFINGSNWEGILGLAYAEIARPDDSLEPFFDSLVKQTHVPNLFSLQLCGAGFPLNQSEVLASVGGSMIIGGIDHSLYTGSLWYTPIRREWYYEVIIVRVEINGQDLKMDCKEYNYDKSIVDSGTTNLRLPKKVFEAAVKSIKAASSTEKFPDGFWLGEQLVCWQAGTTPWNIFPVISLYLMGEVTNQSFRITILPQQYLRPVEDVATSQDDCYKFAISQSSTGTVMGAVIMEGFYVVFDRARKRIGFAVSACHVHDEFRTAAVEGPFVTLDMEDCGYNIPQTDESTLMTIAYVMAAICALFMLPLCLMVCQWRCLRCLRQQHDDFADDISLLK
Experiment: In vitro enzymatic BACE1 FRET assay
Assay type: biochemical
Conditions: read-out: IC50 IP (μM) BACE1 enzyme
measurementType: IC50 (µM)

Solved entries:
compound: NC1=N[C@](CF)(c2cc(Nc3ncnc4cc(OCc5ncco5)cnc34)ccc2F)[C@@H]2C[C@@H]2S1 [Example 763]
scaleUnit: µM
IC50: 0.00849

compound: C[C@]1(c2cc(Nc3nccc4[nH]c(=O)cnc34)cc(F)c2F)N=C(N)S[C@@]2(C(F)F)C[C@@H]12 [Example 896]
scaleUnit: µM
IC50: 0.018

compound: C#CCOc1cnc2c(Nc3ccc(F)c([C@@]4(C)N=C(N)S[C@@]5(C(=O)NC6CC6)C[C@H]54)c3)nccc2n1 [Example 794]
scaleUnit: µM
IC50: 0.000846

compound: COC[C@]12C[C@H]1[C@@](C)(c1cc(Nc3nccc4cc(OC)cnc34)cc(F)c1F)N=C(N)S2 [Example 629]
scaleUnit: µM
IC50: 0.0365

compound: COC[C@]12C[C@H]1[C@@](C)(c1cc(Nc3nccc4nc(OCc5ncco5)cnc34)cnc1F)N=C(N)S2 [Example 849]
scaleUnit: µM
IC50: 0.00343

A: C[C@]1(c2cc(Nc3nccc4nc(OCc5ncco5)cnc34)ccc2F)N=C(N)S[C@@]2(C(F)F)C[C@@H]12 [Example 817]
B: COC[C@]12C[C@H]1[C@@](C)(c1cc(NC(=O)c3cnc(OCC(F)(F)F)cn3)cc(C)c1F)N=C(N)S2 [Example 1065]
C: C[C@]1(c2cc(NC(=O)c3ccc(OCC(F)(F)F)cn3)ccc2F)N=C(N)S[C@@]2(C(F)F)C[C@@H]12 [Example 696]
D: C[C@]1(c2cc(NC(=O)c3cnc(OCC(F)(F)F)cn3)cc(F)c2F)N=C(N)S[C@@]2(C#N)C[C@H]21 [Example 940]
Q: Put these in order: smallest IC50 first, largest last. Respond with the label ranking, as requested.
Result: B, A, D, C

1: C#CCOc1cnc2c(Nc3cnc(F)c([C@@]4(C)N=C(N)S[C@@]5(C(F)F)C[C@@H]45)c3)nccc2n1 [Example 653]
2: C[C@]1(c2cc(NC(=O)c3ccc(OCc4ncco4)cn3)cc(F)c2F)N=C(N)S[C@@]2(S(C)(=O)=O)C[C@H]21 [Example 745]
Q: Which value of IC50 is smaller, the one for 1 or the one for 2 ? Let me know the label of the one you choose.
Result: 1

----------
Property: IC50; scope: individual molecules
Target: Recombinant Cat D (Homo sapiens (Human), UniProt P07339)
Sequence (P07339 65-412): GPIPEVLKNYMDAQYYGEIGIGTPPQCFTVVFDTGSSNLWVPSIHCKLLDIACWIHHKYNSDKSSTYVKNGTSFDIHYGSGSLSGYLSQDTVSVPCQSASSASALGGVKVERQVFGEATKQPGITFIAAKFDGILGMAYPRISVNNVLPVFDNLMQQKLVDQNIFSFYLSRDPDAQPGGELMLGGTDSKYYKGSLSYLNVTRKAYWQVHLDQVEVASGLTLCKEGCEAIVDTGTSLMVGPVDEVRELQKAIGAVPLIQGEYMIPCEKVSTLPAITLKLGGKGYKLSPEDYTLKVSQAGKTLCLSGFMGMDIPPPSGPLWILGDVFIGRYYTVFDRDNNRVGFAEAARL
Assay: In vitro enzymatic Cathepsin D (Cat D) FRET assay
Assay type: biochemical
Settings: read-out: IC50 IP (μM) CatD

Q: Complete the entry with IC50 for C[C@]1(c2cc(NC(=O)c3ccc(OCC(F)(F)F)cn3)ccc2F)N=C(N)S[C@@]2(CF)C[C@H]21 [Example 697]
Result: > 400 µM

Q: Kindly indicate its recorded IC50. Item: C#CCOc1cnc2c(Nc3cnc(F)c([C@@]4(C)N=C(N)S[C@@]5(CF)C[C@H]54)c3)ncnc2c1 [Example 944]
Result: > 400 µM

Q: For the molecule COC[C@]12C[C@H]1[C@@](C)(c1cc(NC(=O)c3cnc(OCC(F)(F)F)cn3)ccc1F)N=C(N)S2 [Example 831] , give its reported IC50.
Result: > 400 µM

----------
Target: human recombinant BACE2 (Homo sapiens (Human), UniProt Q9Y5Z0)
Sequence (Q9Y5Z0 63-518): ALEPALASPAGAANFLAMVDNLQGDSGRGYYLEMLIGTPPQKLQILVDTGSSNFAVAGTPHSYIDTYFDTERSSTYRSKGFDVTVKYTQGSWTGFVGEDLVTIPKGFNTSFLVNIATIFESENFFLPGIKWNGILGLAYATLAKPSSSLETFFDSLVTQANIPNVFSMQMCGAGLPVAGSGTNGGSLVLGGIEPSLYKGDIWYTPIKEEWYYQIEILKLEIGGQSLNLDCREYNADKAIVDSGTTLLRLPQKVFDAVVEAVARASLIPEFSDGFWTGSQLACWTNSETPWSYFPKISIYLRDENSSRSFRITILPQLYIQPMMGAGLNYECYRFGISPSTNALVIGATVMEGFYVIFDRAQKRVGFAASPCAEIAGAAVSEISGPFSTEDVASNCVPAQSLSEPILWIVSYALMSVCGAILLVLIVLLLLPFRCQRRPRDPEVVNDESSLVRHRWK
Assay: In vitro enzymatic BACE2 FRET assay
Assay type: biochemical
Settings: read-out: IC50 IP (μM) BACE2 enzyme
Protocol: These recombinant proteins were further purified using Ni-NTA affinity chromatography (Qiagen). […] This assay is effectively started by the addition of FRET substrate (50 nM) and the combination is incubated for one hour. The FRET assay is terminated by addition of Tris buffer, which raises the pH to neutrality, and the fluorescence is determined. […] Proteolytic cleavage of the FRET substrate releases quenching of fluorescence (excitation 488 nm and emission 590 nm).
measurementType: IC50 (µM)

compound: C[C@]1(c2cc(NC(=O)c3cnc(OCC(F)(F)F)cn3)ccc2F)N=C(N)S[C@@]2(C(=O)N3CC[C@H](F)C3)C[C@H]21
scaleUnit: µM
valueReported: 0.0125

A: COC[C@]12C[C@H]1[C@@](C)(c1cc(NC(=O)c3cnc(OCC4CCO4)cn3)cc(F)c1F)N=C(N)S2 (stereo partly shown)
B: C[C@]1(c2cc(NC(=O)c3cnc(OCC(F)(F)F)cn3)ccc2F)N=C(N)S[C@@]2(C(=O)NC3CC3(F)F)C[C@H]21 (stereo partly shown)
C: C[C@]1(c2cc(Nc3ncnc4cc(C#N)cnc34)ccc2F)N=C(N)S[C@]2(CO)[C@H]1C2(F)F
Q: Falling order of IC50, please. Write out the labels following the order that was asked for.
Result: A, B, C

----------
Biological target: human recombinant BACE2 (Homo sapiens (Human), UniProt Q9Y5Z0)
Test: In vitro enzymatic BACE2 FRET assay
Type: biochemical
Settings: BACE2 FRET enzyme assay; read-out: IC50 IP (μM) BACE2 enzyme
Below: a set of entries, each annotated with reported IC50.

Solved cases below.
compound: NC1=N[C@](CF)(c2cc(NC(=O)c3ccc(Cl)cn3)cc(F)c2F)[C@@H]2C[C@]2(CF)S1 [Example 59]
target: human recombinant BACE2 (Homo sapiens (Human), UniProt Q9Y5Z0)
valueReported: < 0.00203 µM
//
compound: NC1=N[C@](CF)(c2cc(Nc3nccc4cc(Cl)cnc34)ccc2F)[C@@H]2C[C@]2(CO)S1 [Example 45]
target: human recombinant BACE2 (Homo sapiens (Human), UniProt Q9Y5Z0)
valueReported: < 0.00203 µM

Field: next compound
Q: Give IC50 for Cc1cc(C#N)cnc1C(=O)Nc1cc(F)c(F)c([C@@]2(C)N=C(N)S[C@@]3(C(F)F)C[C@@H]23)c1 [Example 94]
Result: < 0.00203 µM

----------
Molecular target: Recombinant Cat D (Homo sapiens (Human), UniProt P07339)
Test: In vitro enzymatic Cathepsin D (Cat D) FRET assay
Type: biochemical
Conditions: read-out: IC50 IP (μM) CatD
measurementType: IC50 (µM)

I: C[C@]1(c2cc(Nc3nccc4nc(OCCN5CCCC5=O)cnc34)cc(F)c2F)N=C(N)S[C@@]2(C(F)F)C[C@@H]12
II: CC#CCOc1cnc2c(Nc3cc(F)c(F)c([C@@]4(C)N=C(N)S[C@@]5(COC)C[C@H]54)c3)nccc2c1
Q: Field: entry with larger IC50 (options I / II ). Give the label under which the chosen entry appears.
Result: II

----------
Biological target: Recombinant Cat D (Homo sapiens (Human), UniProt P07339)
Assay: In vitro enzymatic Cathepsin D (Cat D) FRET assay
Assay type: biochemical
Conditions: read-out: IC50 IP (μM) CatD
measurementType: IC50

Recorded IC50, per entry:
smilesString: COC[C@]12C[C@H]1[C@@](C)(c1cc(NC(=O)c3cnc(OCCF)cn3)ccc1F)N=C(N)S2
IC50: > 400 µM

smilesString: CCOC(=O)/C=C/[C@]12C[C@H]1[C@@](CF)(c1cc(NC(=O)c3ccc(Cl)cn3)ccc1F)N=C(N)S2
IC50: 250 µM

Q: Supply recorded IC50 for `C[C@]1(c2cc(Nc3nccc4nc(OCc5ncco5)cnc34)cc(F)c2F)N=C(N)S[C@@]2(C(F)F)C[C@@H]12` here.
Result: > 400 µM

----------
Target: human recombinant BACE2 (Homo sapiens (Human), UniProt Q9Y5Z0)
Experiment: In vitro enzymatic BACE2 FRET assay
Type: biochemical
Conditions: BACE2 FRET enzyme assay; read-out: IC50 IP (μM) BACE2 enzyme
measurementType: IC50 (µM)

Worked examples, 2 molecules total:
molecule: COC[C@]12C[C@H]1[C@@](C)(c1cc(Nc3ncnc4cc(C#N)cnc34)cc(F)c1F)N=C(N)S2 [Example 46]
valueReported: 0.0301
//
molecule: C[C@]1(c2cc(Nc3nccc4cc(C#N)cnc34)cc(F)c2F)N=C(N)S[C@@]2(CF)C[C@H]21 [Example 60]
valueReported: 0.00174

A: Cc1cc(Cl)cnc1C(=O)Nc1cc(F)c(F)c([C@@]2(CF)N=C(N)S[C@H]3C[C@H]32)c1 [Example 78]
B: COc1cnc2c(Nc3ccc(F)c([C@@]4(CF)N=C(N)S[C@H]5CC54)c3)ncnc2c1 (stereo in doubt) [Example 88]
Q: Smaller IC50 value? Options are A and B State your choice using its label.
Result: A

----------
List of IC50 values.
Biological target: Recombinant Cat D (Homo sapiens (Human), UniProt P07339)
Test: In vitro enzymatic Cathepsin D (Cat D) FRET assay
Format: biochemical
Conditions: read-out: IC50 IP (μM) CatD

Q: Report measured IC50; entry is COC[C@]12C[C@H]1[C@@](C)(c1cc(NC(=O)c3ccc(Cl)cn3)cc(C)c1F)N=C(N)S2 [Example 1066]
Result: > 400 µM

Q: Supply IC50 value. Item: CC#CCOc1cnc2c(Nc3cc(F)c(F)c([C@@]4(C)N=C(N)S[C@@]5(C(F)F)C[C@@H]45)c3)nccc2n1 [Example 868]
Result: > 400 µM

Q: Give the value of IC50 reported for the following: COC[C@H](C)Oc1cnc(C(=O)Nc2cc(F)c(F)c([C@@]3(C)N=C(N)S[C@@]4(C#N)C[C@H]43)c2)cn1 [Example 1010]
Result: > 400 µM
